Assay: NCI Yeast Anticancer Drug Screen. Data for the bub3 strain (AID 167)
Details: S. cerevisiae bub3 mutant strain, active compounds read high; at 50.0 µM unless noted
About 79,000 compounds went through this panel and 15% of them were active in at least one assay; those are over-represented in the sample as a whole.
I'd be grateful if you could share measured growth inhibition for these entries.
Write the number in % without appending the unit.

Ask: Entry OCCNc1ncnc2c1ncn2C1OC(CO)C(O)C1O (centres undefined) has what growth inhibition?
Result: -20

Ask: Note, next up: O=c1c2cc(Cl)ccc2c2ccc(Cl)cc2c(=O)n1-c1ccc2c(c1)Cc1ccccc1-2
Result: 8.8

Ask: Note, next up: C=C1N(c2cc3ccccc3o2)C(=O)OC12CCCCC2
Result: -2.55

Ask: Note, next up: Cc1ccc(S(=O)(=O)OC2CCSCC2)cc1
Result: 7.05

Ask: Note, next up: NC(N)=Nc1ccc(-c2ccc(N=C(N)N)cc2)cc1
Result: -24.9

Ask: Note, next up: COCN(CCc1ccccc1)CCN(C)C
Result: 2.05

Ask: Note, next up: COC(=O)C(CCSc1ccccc1)C(=O)OC
Result: 28.2

Ask: Note, next up: O=C(COc1ccc(Cl)cc1)N1CCN(C(=O)COc2ccc(Cl)cc2)c2ccccc21
Result: 11.6

Ask: Note, next up: O=C1Cc2c(-c3ccc(Cl)cc3)cc(-c3ccccc3)nc2-c2ccccc2N1
Result: -11.2

Ask: Note, next up: Cc1ccc(/C=C2\NC(=S)NC2=O)cc1
Result: -23.4

Ask: Note, next up: CC(=O)Nc1ccn(C2OC(CO)C(O)C2O)c(=O)n1 (centres undefined)
Result: -11.6

Ask: Note, next up: Clc1ccccc1Br
Result: 2.25

Ask: Note, next up: COC(=O)C1Cc2c([nH]c3ccccc23)C=N1 (centres undefined)
Result: 14.8

Ask: Note, next up: Nc1ccccc1SC(CC(=O)c1ccc(-c2ccccc2)cc1)c1ccco1 (centres undefined)
Result: -7.6

Ask: Note, next up: O=C(NCCCOC(=O)CCCCCCCCC(=O)OCCCNC(=O)NC(=O)c1c[nH]c(=O)[nH]c1=O)NC(=O)c1c[nH]c(=O)[nH]c1=O
Result: 6.05

Ask: Note, next up: COc1ccc(C2(O)OCC(COc3cc(C)c(Cl)c(C)c3)O2)cc1OC (centres undefined)
Result: -6.05

Ask: Note, next up: COCC(C)OC(=O)COc1ccccc1 (centres undefined)
Result: -4.35

Ask: Note, next up: COc1ccccc1/C=C\C#N
Result: -29.2

Ask: Note, next up: CCCCCCCCCCCCCCCCCCOC(=O)CC(C)=O
Result: -9.2

Ask: Note, next up: O=C(O)C1=CCCc2ccc3ccccc3c21
Result: -27.9

Ask: Note, next up: CCC(=O)C1(C)OC1C(C)CC(C)C1OC(=O)CC2(O)CC=C(C)C(O2)/C(C)=C/CCCC(OC2CC(OC(N)=O)C(O)C(C)O2)/C=C/C(C)C(O)C1C (centres undefined)
Result: 85.2

Ask: Note, next up: COc1ccc(OCc2ccc(OC)c(OC)c2)cc1
Result: -8.15

Ask: Note, next up: CN(C)c1ccc(C=Nc2c(N)n(C)c(=O)n(C)c2=O)cc1
Result: -9.45

Ask: Note, next up: O=[N+]([O-])c1ccc(S(=O)(=O)O)cc1
Result: 9.65
